experimental.target: UniProtKB P45452
experiment.description: MMP-13 inhibition, thiopeptide or fluorescent peptide substrate
Assay type: biochemical
settings: Table 1, first part; read-out: MMP13 IC50
metric: pIC50
One number for each entry, as −log10 of the molar value.

Query: // fetch pIC50 given entry CC#CCOc1ccc(S(=O)(=O)C(CCCCCC)C(=O)NO)cc1 (stereo not shown) [Example 5]
Result: 6.30

###

I'd be grateful if you could share measured pIC50 for these entries.
experimental.target: UniProt P03956
Sequence (P03956 100-469): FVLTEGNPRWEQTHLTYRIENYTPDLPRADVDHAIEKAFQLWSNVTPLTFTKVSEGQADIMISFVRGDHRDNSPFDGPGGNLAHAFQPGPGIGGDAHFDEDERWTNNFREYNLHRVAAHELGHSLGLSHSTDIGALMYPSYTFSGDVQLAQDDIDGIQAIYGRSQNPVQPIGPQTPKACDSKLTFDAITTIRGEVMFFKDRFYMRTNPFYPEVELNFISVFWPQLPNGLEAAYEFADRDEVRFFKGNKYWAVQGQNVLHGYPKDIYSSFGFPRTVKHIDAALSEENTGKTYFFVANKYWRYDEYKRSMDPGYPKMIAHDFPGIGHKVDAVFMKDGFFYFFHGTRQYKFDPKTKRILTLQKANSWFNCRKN
experiment.description: MMP-1 inhibition, thiopeptide or fluorescent peptide substrate
Assay type: biochemical
settings: Table 1, second part; read-out: MMP1 IC50
Give bare numbers, as −log10 of the molar value.

CC#CCOc1ccc([S+]([O-])C(C(=O)NO)C(C)C)cc1 (centres unmarked) ... 5.52

Below: the item to evaluate.
Query: Find pIC50 for CC#CCOc1ccc([S+]([O-])[C@@H](C(=O)NO)C(C)C)cc1 (some centres unmarked) on UniProt P03956 and write it down.
Result: 5.19

###

I'd be grateful if you could share measured IC50 for these entries.
experimental.target: TNF-α converting enzyme (TACE) (Homo sapiens, UniProt P78536)
Sequence (P78536 215-824): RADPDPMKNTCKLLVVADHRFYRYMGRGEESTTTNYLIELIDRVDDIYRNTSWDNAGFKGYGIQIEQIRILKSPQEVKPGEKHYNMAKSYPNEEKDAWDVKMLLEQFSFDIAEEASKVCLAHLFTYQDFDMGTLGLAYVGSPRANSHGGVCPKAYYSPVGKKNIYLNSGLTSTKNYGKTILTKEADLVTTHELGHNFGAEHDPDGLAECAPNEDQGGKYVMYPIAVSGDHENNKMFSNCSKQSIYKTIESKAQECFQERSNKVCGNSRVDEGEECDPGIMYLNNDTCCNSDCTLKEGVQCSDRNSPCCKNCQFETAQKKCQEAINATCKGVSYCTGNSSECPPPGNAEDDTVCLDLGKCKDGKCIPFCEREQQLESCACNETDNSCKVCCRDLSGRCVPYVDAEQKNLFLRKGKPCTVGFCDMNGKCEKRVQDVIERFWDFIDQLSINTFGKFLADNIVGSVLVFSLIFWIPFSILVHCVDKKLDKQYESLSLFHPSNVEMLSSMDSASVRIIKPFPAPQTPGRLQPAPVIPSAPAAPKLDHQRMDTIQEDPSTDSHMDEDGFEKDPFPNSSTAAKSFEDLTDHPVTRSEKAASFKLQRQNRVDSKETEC
experiment.description: TACE inhibition, fluorescent peptidyl substrate
Assay type: biochemical
settings: Table 1, second part; footnote a: IC50 (nM); read-out: TACE IC50
Description: […] The reaction is initiated by addition of a fluorescent peptidyl substrate (final concentration 100 μM) to each well and then shaking on a shaker for 5 sec. The reaction is read (excitation 340 nm, emission 420 nm) for 10 min. and the increase in fluorescence over time is plotted as a linear line. The slope of the line is calculated and represents the reaction rate. […]
Answers are plain numbers, in nM.

Known results for compounds:
CC#CCOc1ccc([S+]([O-])C(C(=O)NO)c2ccccc2)cc1 (single isomer, unassigned) ... 162
CC#CCOc1ccc(SC(C(=O)NO)c2ccc(F)cc2)cc1 (stereo not shown) ... 108
CC#CCOc1ccc([S+]([O-])[C@@H](C(=O)NO)c2ccc(-c3cccs3)cc2)cc1 (stereo partly shown) ... 682

Below: the item to evaluate.
Query: Find IC50 for CC#CCOc1ccc([S+]([O-])C(C(=O)NO)c2ccc(F)cc2)cc1 (stereo not shown) on TNF-α converting enzyme (TACE) (Homo sapiens, UniProt P78536) and write it down.
Result: 148

###

experimental.target: MMP-13 (Homo sapiens, UniProt P45452)
experiment.description: MMP-13 inhibition, thiopeptide or fluorescent peptide substrate
Type: biochemical
settings: Table 1, second part; read-out: MMP13 IC50
metric: IC50 (µM)
Answers are plain numbers, in µM.

Query: Find IC50 for CC#CCOc1ccc([S+]([O-])[C@@H](C(=O)NO)c2ccc(OC)cc2)cc1 (single isomer, unassigned) on MMP-13 (Homo sapiens, UniProt P45452) and write it down.
Result: 3.69

###

Counter-ions that a name gives are not always drawn.
metric: melting point

Known results for compounds:
CC#CCOc1ccc(OCC(=O)NO)cc1 [Example 11] ... 130 to 132 °C
CC#CCOc1ccc(S(=O)(=O)C(C(=O)NO)C2CCN(C(C)=O)CC2)cc1 (centres unmarked) [Example 121] ... 103 °C
CC#CCOc1ccc(OCCC(=O)NO)cc1 [Example 9] ... 116 to 118 °C
CC#CCOc1ccc(S(=O)(=O)C(C(=O)NO)C2CCSCC2)cc1 (centres unmarked) [Example 123] ... 175 to 177 °C

// each listed compound needs a value for melting point
1. CC#CCOc1ccc(S(=O)(=O)C(C)(Cc2ccc(OCCN3CCCCC3)cc2)C(=O)NO)cc1 (centres unmarked) (as salt: hydrochloride) [Example 1]
2. CC#CCOc1ccc([S@@+]([O-])[C@@H](CCCCCC)C(=O)NO)cc1 [Example 8]
3. CC#CCOc1ccc(SC(CCCCCC)C(=O)NO)cc1 (centres unmarked) [Example 6]
4. CC#CCOc1ccc(S(=O)(=O)C(C)(Cc2ccc(-c3ccccc3)cc2)C(=O)NO)cc1 (centres unmarked) [Example 2]
5. CC#CCOc1ccc(S(=O)(=O)C(C)(Cc2cccnc2)C(=O)NO)cc1 (centres unmarked) (as salt: hydrochloride) [Example 3]
6. CC#CCOc1ccc(OCCCC(=O)NO)cc1 [Example 10]

Result:
1: 114 to 116 °C; 2: 112.2 °C; 3: 125 °C; 4: 92 to 94 °C; 5: 154 to 156 °C; 6: 123 to 125 °C

Query: // fetch melting point given entry CC#CCOc1ccc(SC(C)C(=O)NO)cc1 (centres unmarked) [Example 4]
Result: 102 to 104 °C
